Readings of inhibition at 1 µM for the listed compounds
target: human MCH-1 receptor (Homo sapiens); experiment: Binding assay for human melanin-concentrating hormone (MCH-1) receptor, radioligand displacement on CHO-K1 cell membranes; conditions: read-out: MCH1 % inhibition @ 1 uM
Sequence (Q99705 whole entry): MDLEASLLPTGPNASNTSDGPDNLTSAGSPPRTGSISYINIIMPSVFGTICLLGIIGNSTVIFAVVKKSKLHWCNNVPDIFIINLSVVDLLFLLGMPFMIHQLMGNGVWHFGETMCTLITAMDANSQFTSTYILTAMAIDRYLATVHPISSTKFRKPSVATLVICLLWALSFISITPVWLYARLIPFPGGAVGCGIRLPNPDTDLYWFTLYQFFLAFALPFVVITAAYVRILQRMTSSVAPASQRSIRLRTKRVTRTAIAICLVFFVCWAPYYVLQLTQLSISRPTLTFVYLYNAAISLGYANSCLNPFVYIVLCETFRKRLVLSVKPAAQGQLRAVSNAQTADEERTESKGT
Structures can show the parent of a compound that is named as a salt.
Enter your answer as a number in %; do not include the unit.

Example entries and their recorded answers appear below.
COMPOUND	ENDPOINT_UNIT	inhibition at 1 µM
Cl.O=c1cc(OCc2ccc(F)cn2)ccn1-c1ccc2sc3c(c2c1)CCNCC3 [Example 69, hydrochloride]	%	69
O=c1cc(OCc2ccccc2)ccn1-c1ccc2oc3c(c2c1)CCCNC3 [Example 110, hydrochloride]	%	12

Please report the recorded inhibition at 1 µM for Cl.O=C1CN(CCc2ccc(F)cn2)CCN1c1ccc2c3c(oc2c1)CCNC3 [Example 70, hydrochloride] .
66

Recorded inhibition at 1 µM for Cl.O=c1cc(-c2ccc(C(F)(F)F)nn2)ccn1-c1ccc2c3c(oc2c1)CCNC3 [Example 88, hydrochloride] , please?
41
